- Test system: Methicillin Resistant Staphylococcus aureus strain USA 300, NRS384
- measurement_description: Minimum inhibitory concentration, broth micro-dilution (CLSI), S. aureus
- Type: cell-based
- experimental_conditions: Staphylococcus aureus, MRSA / NRS 384 / USA300, 22 h, MRSA USA 300 NRS384; 35° C., 22 hours; read-out: MIC (μg/mL) S. aureus
- Experimental: In vitro antimicrobial activity of each compound was determined by measuring minimal inhibitor concentrations (MICs) using the broth micro-dilution technique as approved by the Clinical and Laboratory Standards Institute (CLSI) (Methods for Dilution Antimicrobial Susceptibility Tests for Bacteria that Grow Aerobically; Approved Standard—Eighth Edition. CLSI document M07-A8. Wayne, Pa.: Clinical and Laboratory Standards; 2009). […]
// reported MIC for each item listed
Write the number in µg/mL without appending the unit.

Q) Entry under review: CCCCCCCCc1ccc(C(=O)N[C@@H](CCO)C(=O)N(C)[C@@H]2C(=O)N[C@@H](C)C(=O)N[C@H](C(=O)NCC#N)Cc3ccc(OCCN)c(c3)-c3cc2ccc3OCCN)c(C)c1 . Reported MIC?
A) 0.063

Q) Note, next up: Cc1nc(Oc2ccc(C(C)(C)C)cc2)ncc1C(=O)N[C@@H](CCN)C(=O)N(C)[C@@H]1C(=O)N[C@@H](C)C(=O)N[C@H](C(=O)NCC#N)Cc2ccc(OCCN)c(c2)-c2cc1ccc2OCCN
A) 0.063

Q) Likewise for CCCCCCCCCCNCCC(=O)N[C@@H](CCCCN)C(=O)N(C)[C@@H]1C(=O)N[C@@H](C)C(=O)N[C@H](C(=O)NCC#N)Cc2ccc(O)c(c2)-c2cc1ccc2OCCN ?
A) 0.13

Q) What about this molecule? CCCCCCc1ccc(C(=O)N2C[C@@H](N)CC2C(=O)N(C)[C@@H]2C(=O)N[C@@H](C)C(=O)N[C@H](C(=O)NCC#N)Cc3ccc(OCCN)c(c3)-c3cc2ccc3OCCN)c(C)c1 (some centres unmarked)
A) 0.19

Q) Next: CCCCCCCCCC(=O)N[C@@H](CCSC)C(=O)N(C)[C@@H]1C(=O)N[C@@H](C)C(=O)N[C@H](C(=O)NCC#N)Cc2ccc(OCCN)c(c2)-c2cc1ccc2OCCN
A) 0.5

###

pIC50 reference
- tested_target: SpsB (Staphylococcus aureus signal peptidase) (Staphylococcus aureus, UniProt P0A070)
- Construct: This assay uses a suspension of Staphylococcus aureus cells as a source of SpsB instead of recombinant SpsB protein; endogenous in cells; host or cells: S. aureus, USA300 background, overexpressing SpsB (whole-cell suspension from frozen pellets)
- Sequence (P0A070 whole entry): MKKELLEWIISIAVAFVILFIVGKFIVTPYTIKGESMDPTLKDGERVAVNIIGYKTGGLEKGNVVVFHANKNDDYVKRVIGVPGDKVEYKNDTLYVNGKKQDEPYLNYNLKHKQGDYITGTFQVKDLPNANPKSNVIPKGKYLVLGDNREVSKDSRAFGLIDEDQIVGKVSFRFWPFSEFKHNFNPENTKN
- measurement_description: cell-based
- Assay type: biochemical
- experimental_conditions: SpsB IC50, whole-cell S. aureus (USA300 background, overexpressing SpsB) as SpsB source; fluorogenic peptide substrate, kinetic read 30 min
// pIC50: -log10(molar conc.)

// known answers, use as guide
CCC/C=C\c1ccc(C(=O)N[C@@H](CCN)C(=O)N(C)[C@@H]2C(=O)N[C@@H](C)C(=O)N[C@H](C(=O)NCC#N)Cc3ccc(OCCN)c(c3)-c3cc2ccc3OCCN)c(C)c1
9.15
Cc1nc(Oc2ccc(C(C)(C)C)cc2)ncc1C(=O)N[C@@H](CCN)C(=O)N(C)[C@@H]1C(=O)N[C@@H](C)C(=O)N[C@H](C(=O)NCC#N)Cc2ccc(OCCN)c(c2)-c2cc1ccc2OCCN
9.14

// moving on: another record for pIC50
Q) Consider the compound CCCCc1ccc(C(=O)N[C@@H](CCN)C(=O)N(C)[C@@H]2C(=O)N[C@@H](C)C(=O)N[C@H](C(=O)NCC#N)Cc3ccc(OCCN)c(c3)-c3cc2ccc3OCCN)cn1 and give its measured pIC50.
A) 8.26
